System: UACC-812 (Breast Carcinoma);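 note: after 72 h of two-drug dosing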
experiment-notes: Bliss excess, mean over the matrix (fraction); higher = more synergy
Task for the reader: assign each of the following compounds its reported Bliss excess.
Answers are plain numbers.

CCc1c2c(nc3ccc(O)cc13)-c1cc3c(c(=O)n1C2)COC(=O)[C@]3(O)CC [SN-38] + O=C(c1cc(Cc2n[nH]c(=O)c3ccccc23)ccc1F)N1CCN(C(=O)C2CC2)CC1 [Olaparib] (first compound max 0.3 µM, 7x7, partner max 10 µM)    0.0333

Let's switch to this compound now.
Documented Bliss excess of C[C@@H]1COCCN1c1cc(C2([S@](C)(=N)=O)CC2)nc(-c2ccnc3[nH]ccc23)n1 [AZD6738] + C1CC(C1)(C(=O)[O-])C(=O)[O-].N.N.[Pt+2] [Carboplatin] (first compound max 10 µM, 7x7, partner max 10 µM) : -0.0423
